testTarget: GABA-A receptor; anion channel
protocolText: Inhibition of [3H]flunitrazepam binding to GABA-A benzodiazepine receptor of rat cerebral cortex
Assay type: tissue-based
quantityKind: IC50 (nM)
Give the value in nM but do not write nM after it.

Using the record for `C=CCOC(=O)c1c(C)nc2c(cnn2CCCC)c1N` , state its measured IC50.
21

Using the record for CNC1=Nc2ccc(Cl)cc2C(c2ccccc2)=[N+]([O-])C1 [CHLORDIAZEPOXIDE] , state its measured IC50.
330

Using the record for `CCOC(=O)c1c(C)nc2c(cnn2CC)c1N` , state its measured IC50.
460

Using the record for `C=CCNC(=O)c1cnc2c(cnn2CCC#CC)c1N` , state its measured IC50.
81

Using the record for `CCOC(=O)c1c(C)nc2c(cnn2CCC(C)C)c1N` , state its measured IC50.
39

Using the record for `C=CCCOC(=O)c1c(C)nc2c(cnn2CCCCC)c1N` , state its measured IC50.
174

Using the record for `CCCCCn1ncc2c(N)c(C(=O)NCCC)cnc21` , state its measured IC50.
89

Using the record for `CCCCCn1ncc2c(N)c(C(=O)OCCC)c(C)nc21` , state its measured IC50.
50

Using the record for `CCCCCCn1ncc2c(N)c(C(=O)OCC)c(C)nc21` , state its measured IC50.
320

Using the record for `C=CCOC(=O)c1cnc2c(cnn2CCCCC)c1N` , state its measured IC50.
16

Using the record for `CCCCCn1ncc2c(N)c(C(=O)N3CCC3)cnc21` , state its measured IC50.
137

Using the record for `CC#CCCn1ncc2c(N)c(C(=O)NCC3CC3)cnc21` , state its measured IC50.
271

Using the record for `C=CCOC(=O)c1cnc2c(cnn2CCC(C)C)c1N` , state its measured IC50.
5.7

Using the record for `CC#CCCn1ncc2c(N)c(C(=O)OCC3CC3)c(C)nc21` , state its measured IC50.
315

* * *

System: GABA-A receptor; anion channel
protocolText: Inhibition of [3H]flunitrazepam binding to GABA-A benzodiazepine receptor of rat cerebral cortex at 500 nM
Type: tissue-based

givenSmiles	IC50
C=CCN(C)C(=O)c1cnc2c(cnn2CCCCC)c1N	Not Active
CCCCCn1ncc2c(N)c(C(=O)N(CC)CCC)cnc21	Not Active
C=CCN(C)C(=O)c1cnc2c(cnn2CCC#CC)c1N	Not Active

* * *

testTarget: GABA-A receptor; anion channel
protocolText: Inhibition of [3H]flunitrazepam binding to GABA-A benzodiazepine receptor of rat cerebral cortex
Format: tissue-based
quantityKind: pIC50
pIC50 is defined as minus the log10 of a concentration measured in mol/L.

Using the record for CCOC(=O)c1c(C)nc2c(cnn2CCC(C)CC)c1N (centres undefined) , state its measured pIC50.
7.10

Using the record for `CCCCCn1ncc2c(N)c(C(=O)NCC)cnc21` , state its measured pIC50.
6.96

Using the record for `C=C(C)COC(=O)c1c(C)nc2c(cnn2CCCCC)c1N` , state its measured pIC50.
7.16

Using the record for `CC#CCCn1ncc2c(N)c(C(=O)OCC)c(C)nc21` , state its measured pIC50.
6.23

Using the record for `CCCCCn1ncc2c(N)c(C(=O)OCCCC)c(C)nc21` , state its measured pIC50.
6.95

Using the record for CCOC(=O)c1c(C)nc2c(cnn2CC(C)CC)c1N (centres undefined) , state its measured pIC50.
6.41

Using the record for `C#CCOC(=O)c1c(C)nc2c(cnn2CCCCC)c1N` , state its measured pIC50.
7.05

Using the record for `CCCCCn1ncc2c(N)c(C(N)=O)cnc21` , state its measured pIC50.
5.61

Using the record for `C=CCCCn1ncc2c(N)c(C(=O)OCC=C)c(C)nc21` , state its measured pIC50.
8.01
